biological target: delta-5-desaturase (Rattus norvegicus); construct: the microsomal fraction of a rat river (10 μl), which had been diluted to 3 mg/ml; from tissue; host or cells: rat liver microsomal fraction; test: Inhibitory activity on delta-5-desaturase (rat liver microsomal fraction, 14C-eicosatrienoic acid, TLC); type: biochemical; settings: test compound at 10 μM, room temperature, 120 minutes
Sequence (Q920R3 whole entry): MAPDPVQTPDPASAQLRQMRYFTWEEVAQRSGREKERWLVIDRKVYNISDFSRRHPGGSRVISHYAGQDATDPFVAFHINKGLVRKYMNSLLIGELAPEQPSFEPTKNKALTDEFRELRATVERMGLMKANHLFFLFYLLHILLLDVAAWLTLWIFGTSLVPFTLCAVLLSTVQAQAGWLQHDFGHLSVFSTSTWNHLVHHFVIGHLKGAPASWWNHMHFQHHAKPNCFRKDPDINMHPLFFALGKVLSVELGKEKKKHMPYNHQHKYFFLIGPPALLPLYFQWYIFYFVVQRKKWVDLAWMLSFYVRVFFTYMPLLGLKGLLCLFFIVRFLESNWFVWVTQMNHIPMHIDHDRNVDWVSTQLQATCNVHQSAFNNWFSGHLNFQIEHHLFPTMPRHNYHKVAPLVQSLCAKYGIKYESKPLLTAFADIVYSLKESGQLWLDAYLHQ
measured-parameter: inhibition at 10 µM (%)

INSERT INTO measurements (molecule, measured_parameter, value_measured) VALUES
  ('O=C1Cc2c(nc(OCCC(F)(F)F)n(-c3ccc(OCC(F)(F)F)cc3)c2=O)N1 [Example 341]', 'inhibition at 10 µM', 99),
  ('O=c1c2[nH]ccc2nc(SCCCN2CCOCC2)n1-c1ccc(OCC(F)(F)F)cc1 [Example 112]', 'inhibition at 10 µM', 102),
  ('N#CCCCCSc1nc2cc[nH]c2c(=O)n1-c1ccc(OCC(F)(F)F)cc1 [Example 87]', 'inhibition at 10 µM', 99),
  ('CCSc1nc2cc[nH]c2c(=O)n1-c1ccc(OCC2CC2)c(Cl)c1 [Example 162]', 'inhibition at 10 µM', 103),
  ('CC(C)OCC(O)CSc1nc2cc[nH]c2c(=O)n1-c1ccc(OCC(F)(F)F)cc1 (stereo not shown) [Example 130]', 'inhibition at 10 µM', 100),
  ('N#CCCNC(=O)CCCSc1nc2cc[nH]c2c(=O)n1-c1ccc(OCC(F)(F)F)cc1 [Example 67]', 'inhibition at 10 µM', 96),
  ('Cn1ccc2c(=O)n(-c3ccc(OCC(F)(F)F)cc3)c(SCCCC(=O)NCCC#N)nc21 [Example 195]', 'inhibition at 10 µM', 101),
  ('CCSc1nc2[nH]ccc2c(=O)n1-c1ccc(OCC2CC2)cc1 [Example 208]', 'inhibition at 10 µM', 100),
  ('O=c1c2[nH]ccc2nc(SCCCS(=O)(=O)NCC(F)(F)F)n1-c1ccc(OCC(F)(F)F)cc1 [Example 107]', 'inhibition at 10 µM', 100),
  ('CCOCCOCCSc1nc2cc[nH]c2c(=O)n1-c1ccc(OCC(F)(F)F)cc1 [Example 79]', 'inhibition at 10 µM', 99),
  ('O=C1Cc2c(nc(OCC(F)(F)F)n(-c3ccc(OCC(F)(F)F)cc3)c2=O)N1 [Example 274]', 'inhibition at 10 µM', 100),
  ('O=c1c2[nH]ccc2nc(SCCCO)n1-c1ccc(OCC(F)(F)F)cc1 [Example 116]', 'inhibition at 10 µM', 101),
  ('CC(C)(C)CCOc1ccc(-n2c(SCCCC(=O)NCCC#N)nc3[nH]ccc3c2=O)cc1 [Example 176]', 'inhibition at 10 µM', 98),
  ('O=C1Cc2c(nc(SCC3CC3)n(-c3ccc(OCC(F)(F)F)cc3)c2=O)N1 [Example 297]', 'inhibition at 10 µM', 101),
  ('O=c1c2[nH]ccc2nc(SCCCS(=O)(=O)CC2CC2)n1-c1ccc(OCC2CC2)cc1 [Example 166]', 'inhibition at 10 µM', 101),
  ('CCc1c[nH]c2c(=O)n(-c3ccc(OCC(F)(F)F)cc3)c(SCCCC(=O)NCCC#N)nc12 [Example 171]', 'inhibition at 10 µM', 98),
  ('CCCCOc1nc2[nH]ccc2c(=O)n1-c1ccc(OCC(F)(F)F)cc1 [Example 222]', 'inhibition at 10 µM', 101),
  ('CCOc1ccc(-n2c(SCCCCC(=O)NCCC#N)nc3cc[nH]c3c2=O)cc1 [Example 65]', 'inhibition at 10 µM', 97),
  ('CSc1nc2[nH]ccc2c(=O)n1-c1ccc(OCC(F)(F)F)c(F)c1 [Example 237]', 'inhibition at 10 µM', 98),
  ('O=c1c2[nH]ccc2nc(SCCCS(=O)(=O)NC2CC2)n1-c1ccc(OCC(F)(F)F)cc1 [Example 108]', 'inhibition at 10 µM', 101),
  ('CCCCSc1nc2[nH]ccc2c(=O)n1-c1ccc(OCC(F)(F)F)cc1 [Example 252]', 'inhibition at 10 µM', 96),
  ('CCCCOc1ccc(-n2c(SCCCC(=O)NCCC#N)nc3cc[nH]c3c2=O)cc1 [Example 91]', 'inhibition at 10 µM', 100),
  ('CCOCCCSc1nc2cc[nH]c2c(=O)n1-c1ccc(OCC(F)(F)F)cc1 [Example 81]', 'inhibition at 10 µM', 97),
  ('O=C1Cc2c(nc(SCC3CCC3)n(-c3ccc(OCC(F)(F)F)cc3)c2=O)N1 [Example 296]', 'inhibition at 10 µM', 101),
  ('CCSc1nc2[nH]c(Br)cc2c(=O)n1-c1ccc(OCC(F)(F)F)cc1 [Example 232]', 'inhibition at 10 µM', 96),
  ('CCCSc1nc2[nH]ccc2c(=O)n1-c1ccc(OCC(F)(F)F)cc1 [Example 224]', 'inhibition at 10 µM', 100),
  ('CCSc1nc2c(c(=O)n1-c1ccc(OCC(F)(F)F)cc1)CC(=O)N2 [Example 265]', 'inhibition at 10 µM', 98),
  ('O=C1Cc2c(nc(SCC3CC3)n(-c3ccc(OCC(F)(F)C(F)(F)F)cc3)c2=O)N1 [Example 323]', 'inhibition at 10 µM', 102),
  ('N#CC1(CSc2nc3c(c(=O)n2-c2ccc(OCC(F)(F)F)cc2)CC(=O)N3)CC1 [Example 339]', 'inhibition at 10 µM', 100),
  ('CCOCCOCCSc1nc2cc[nH]c2c(=O)n1-c1ccc(OCC2CC2)cc1 [Example 142]', 'inhibition at 10 µM', 98),
  ('O=c1c2[nH]ccc2nc(SCCC2(O)CCOCC2)n1-c1ccc(OCC2CC2)cc1 [Example 155]', 'inhibition at 10 µM', 99),
  ('CCn1ccc2c(=O)n(-c3ccc(OCC(F)(F)F)cc3)c(SCCCC(=O)NCCC#N)nc21 [Example 193]', 'inhibition at 10 µM', 100),
  ('CSc1nc2c(c(=O)n1-c1ccc(OCC(F)(F)C(F)(F)F)cc1)CC(=O)N2 [Example 303]', 'inhibition at 10 µM', 98),
  ('CC(C)(CO)NC(=O)CCCSc1nc2cc[nH]c2c(=O)n1-c1ccc(OCC(F)(F)F)cc1 [Example 100]', 'inhibition at 10 µM', 100);

====

biological target: delta-5-desaturase (Rattus norvegicus); construct: the microsomal fraction of a rat river (10 μl), which had been diluted to 3 mg/ml; from tissue; host or cells: rat liver microsomal fraction; assay: Inhibitory activity on delta-5-desaturase (rat liver microsomal fraction, 14C-eicosatrienoic acid, TLC); format: biochemical; conditions: test compound at 10 μM, room temperature, 120 minutes
measured-parameter: inhibition at 10 µM (%)

INSERT INTO assay_data (molecule_smiles, measured_parameter, value_measured) VALUES
  ('CC(C)COc1nc2c(c(=O)n1-c1ccc(OCC(F)(F)F)cc1)CC(=O)N2', 'inhibition at 10 µM', 103),
  ('O=c1c2[nH]ccc2nc(SC(F)F)n1-c1ccc(OCC(F)(F)F)cc1', 'inhibition at 10 µM', 101),
  ('O=C1Cc2c(nc(SCC(F)(F)F)n(-c3ccc(OCC(F)(F)C(F)(F)F)cc3)c2=O)N1', 'inhibition at 10 µM', 100),
  ('O=C1Cc2c(nc(SCCC3CC3)n(-c3ccc(OCC(F)(F)F)cc3)c2=O)N1', 'inhibition at 10 µM', 101),
  ('O=c1c2cc[nH]c2nc(OCC(F)F)n1-c1ccc(OCC(F)(F)F)cc1', 'inhibition at 10 µM', 101),
  ('O=C1Cc2c(nc(OC(CF)CF)n(-c3ccc(OCC(F)(F)F)cc3)c2=O)N1', 'inhibition at 10 µM', 100),
  ('CS(=O)(=O)CCCSc1nc2[nH]ccc2c(=O)n1-c1ccc(OCC2CC2)cc1', 'inhibition at 10 µM', 102),
  ('CC(C)S(=O)(=O)CCCSc1nc2cc[nH]c2c(=O)n1-c1ccc(OCC2CC2)cc1', 'inhibition at 10 µM', 101);

====

biological target: delta-5-desaturase (Rattus norvegicus); construct: the microsomal fraction of a rat river (10 μl), which had been diluted to 3 mg/ml; from tissue; host or cells: rat liver microsomal fraction; test: Inhibitory activity on delta-5-desaturase (rat liver microsomal fraction, 14C-eicosatrienoic acid, TLC); assay type: biochemical; settings: test compound at 10 μM, room temperature, 120 minutes
measured-parameter: inhibition at 10 µM (%)

INSERT INTO results (molecule_smiles, measured_parameter, value_measured) VALUES
  ('CC(C)(C)COc1ccc(-n2c(SCCCC(=O)NCCC#N)nc3[nH]ccc3c2=O)cc1', 'inhibition at 10 µM', 100),
  ('O=C(CCCSc1nc2cc[nH]c2c(=O)n1-c1ccc(OCC(F)(F)F)cc1)N1CCCC1', 'inhibition at 10 µM', 102),
  ('N#CCCNC(=O)CCCSc1nc2cc[nH]c2c(=O)n1-c1ccc(OCC2CC2)cc1', 'inhibition at 10 µM', 102),
  ('O=c1c2[nH]ccc2nc(SCCOC2CCOCC2)n1-c1ccc(OCC2CC2)cc1', 'inhibition at 10 µM', 98),
  ('COCCSc1nc2c(c(=O)n1-c1ccc(OCC(F)(F)F)cc1)CC(=O)N2', 'inhibition at 10 µM', 105),
  ('O=c1c2cc[nH]c2nc(SCC2CC2)n1-c1ccc(OCC(F)(F)F)cc1', 'inhibition at 10 µM', 101),
  ('CC(C)Sc1nc2c(c(=O)n1-c1ccc(OCC(F)(F)C(F)(F)F)cc1)CC(=O)N2', 'inhibition at 10 µM', 101),
  ('CCOc1ccc(-n2c(SCC(=O)NCCC#N)nc3[nH]ccc3c2=O)cc1', 'inhibition at 10 µM', 97);
